Tested on: high kalium concentration constricted rabbit aorta
Experiment: Relaxing effects on vascular smooth muscle constricted by high kalium concentration in vitro
Settings: relaxation of rabbit aorta constricted by high kalium solution (K+ 60 mmol/L); mean±SEM, n=5
The threshold is 4. Values of −logEC50 beneath it are tagged rule met; values meeting or exceeding it are tagged rule not met.

compound: Fc1ccc2c(C3CCN(CCCn4nnc5ccc(Cl)cc54)CC3)noc2c1
system.tested: high kalium concentration constricted rabbit aorta
label.class: rule not met
--
compound: O=Cc1ccc2nnn(CCCN3CCC(c4noc5cc(F)ccc45)CC3)c2c1
system.tested: high kalium concentration constricted rabbit aorta
label.class: rule not met
--
compound: c1cnc(C2CCN(CCCCn3cnc4ccccc43)CC2)nc1
system.tested: high kalium concentration constricted rabbit aorta
label.class: rule met
--
compound: Clc1cccc(C2CCN(CCCCn3cnc4ccccc43)CC2)c1
system.tested: high kalium concentration constricted rabbit aorta
label.class: rule met
--
compound: Fc1cccc(C2CCN(CCCCn3cnc4ccccc43)CC2)c1
system.tested: high kalium concentration constricted rabbit aorta
label.class: rule met

Determine if `COc1ccccc1C1CCN(CCCCn2cnc3ccccc32)CC1` shows −logEC50 strictly lower than 4.
rule met

# strict comparison: is reported −logEC50 < 4? input = `c1ccc2c(C3CCN(CCCCn4nnc5ccccc54)CC3)cccc2c1`
rule met

Quick check: −logEC50 of `FC(F)(F)c1cccc(C2CCN(CCCOn3nnc4ccccc43)CC2)c1` under 4?
rule not met

Does this molecule meet the criterion −logEC50 < 4? `Fc1ccc2c(C3CCN(CCCn4nnc5ccc(F)cc54)CC3)noc2c1`
rule not met

---

Reported EC50 values follow for various molecules
Test system: NA constricted rabbit aorta
Assay: Relaxing effects on vascular smooth muscle constricted by noradrenaline (NA) in vitro
Details: Oryctolagus cuniculus; relaxation of rabbit aorta constricted by noradrenaline (10^−5 mol/L); mean±SEM, n=5
# value in µM; strip the unit string

Here's what some known entries look like.
compound: COc1ccc2nnn(OCCN3CCC(c4noc5cc(F)ccc45)CC3)c2c1
EC50 / µM: 49
//
compound: FC(F)(F)c1cccc(C2CCN(CCCOn3cnc4ccccc43)CC2)c1
EC50 / µM: 7.08
//
compound: Fc1ccc2c(C3CCN(CCCCn4nnc5ccccc54)CC3)noc2c1
EC50 / µM: 1.86

The reported EC50 of the molecule `Fc1ccc2c(C3CCN(CCCn4nnc5ccc(F)cc54)CC3)noc2c1` was 1.86

Looking up `COc1ccccc1C1CCN(CCCCn2cnc3ccccc32)CC1` , I see its EC50 listed as 28.2

---

System: NA constricted rabbit aorta
Experiment: Relaxing effects on vascular smooth muscle constricted by noradrenaline (NA) in vitro
Settings: relaxation of rabbit aorta constricted by noradrenaline (10^−5 mol/L); mean±SEM, n=5
measured.endpoint: −logEC50
Field format: numeric only.

Lookup result for `Cc1ccc2c(C3CCN(CCCn4nnc5ccccc54)CC3)noc2c1` ; measured −logEC50: 5.26

---

Each entry below lists one item and its recorded −logEC50 value.
Tested on: high kalium concentration constricted rabbit aorta
Assay: Relaxing effects on vascular smooth muscle constricted by high kalium concentration in vitro
Details: relaxation of rabbit aorta constricted by high kalium solution (K+ 60 mmol/L); mean±SEM, n=5
Field format: numeric only.

Example cases with answers are listed next.
molecule: Cc1ccc2nnn(CCCN3CCC(c4noc5cc(F)ccc45)CC3)c2c1
−logEC50: 4.28
//
molecule: FC(F)(F)c1cccc(C2CCN(CCCCn3cnc4ccccc43)CC2)c1
−logEC50: 5.01
//
molecule: c1ccc2c(c1)ncn2CCCCN1CCC(c2ccncc2)CC1
−logEC50: 3.26
//
molecule: N#Cc1ccc2nnn(CCCCN3CCC(c4cccc(C(F)(F)F)c4)CC3)c2c1
−logEC50: 3.23
//
molecule: c1ccc2c(c1)nnn2CCCCN1CCC(C2CCCCC2)CC1
−logEC50: 3.14

Observed −logEC50, high kalium concentration constricted rabbit aorta, COc1ccc2nnn(CCCN3CCC(c4noc5cc(F)ccc45)CC3)c2c1 [II-140] : 5.02

Field −logEC50 (high kalium concentration constricted rabbit aorta), entry `COc1ccc2nnn(CCCCN3CCC(c4cccc(C(F)(F)F)c4)CC3)c2c1` : 3.56

Record for `FC(F)(F)c1cccc(C2CCN(CCCCn3nnc4ccccc43)CC2)c1` under target or system high kalium concentration constricted rabbit aorta: −logEC50 reported as 5.12

high kalium concentration constricted rabbit aorta −logEC50 of `c1coc(C2CCN(CCCCn3cnc4ccccc43)CC2)c1` is 3.53

Summary line: `Clc1cccc(C2CCN(CCCCn3nnc4ccccc43)CC2)c1` , high kalium concentration constricted rabbit aorta, reported −logEC50 = 3.82
